Every entry's value here was drawn from patent US11713338B2.

A collection of compounds and their measured ELISA Assay Ratio β1/β7
biological target: recombinant integrin α4β1 (Homo sapiens, UniProt P05556+P13612); construct: purchased R&D Systems 5397-A3-050; assay: Integrin α4β1—VCAM-1 competition ELISA; format: binding; conditions: ratio of ELISA IC50s, α4β1 over α4β7
Sequence (P13612 34-970 limits assumed): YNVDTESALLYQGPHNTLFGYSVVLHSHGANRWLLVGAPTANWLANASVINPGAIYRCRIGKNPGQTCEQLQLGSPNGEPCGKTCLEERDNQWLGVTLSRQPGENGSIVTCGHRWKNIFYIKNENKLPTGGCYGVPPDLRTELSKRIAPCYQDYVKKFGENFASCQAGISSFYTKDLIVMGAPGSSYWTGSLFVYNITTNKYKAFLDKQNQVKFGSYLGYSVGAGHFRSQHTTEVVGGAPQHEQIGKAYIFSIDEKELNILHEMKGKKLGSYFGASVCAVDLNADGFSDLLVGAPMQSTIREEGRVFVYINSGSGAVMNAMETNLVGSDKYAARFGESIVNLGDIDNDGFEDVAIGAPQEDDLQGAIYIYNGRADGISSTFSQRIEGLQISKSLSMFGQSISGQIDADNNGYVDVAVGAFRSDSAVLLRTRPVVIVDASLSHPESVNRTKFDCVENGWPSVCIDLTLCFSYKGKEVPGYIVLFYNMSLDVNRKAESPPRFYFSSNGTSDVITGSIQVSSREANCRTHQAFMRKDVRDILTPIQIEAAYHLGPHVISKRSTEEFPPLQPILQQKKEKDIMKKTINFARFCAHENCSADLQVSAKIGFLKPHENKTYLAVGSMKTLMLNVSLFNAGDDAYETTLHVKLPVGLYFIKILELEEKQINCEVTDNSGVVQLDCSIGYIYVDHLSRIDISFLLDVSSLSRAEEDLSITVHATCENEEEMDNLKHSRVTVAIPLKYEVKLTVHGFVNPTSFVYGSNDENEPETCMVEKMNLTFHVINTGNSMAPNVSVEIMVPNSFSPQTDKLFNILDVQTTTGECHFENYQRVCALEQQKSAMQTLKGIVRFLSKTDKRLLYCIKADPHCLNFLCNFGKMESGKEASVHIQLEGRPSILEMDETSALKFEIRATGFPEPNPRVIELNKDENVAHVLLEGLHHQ
Sequence (P05556 21-728 limits assumed): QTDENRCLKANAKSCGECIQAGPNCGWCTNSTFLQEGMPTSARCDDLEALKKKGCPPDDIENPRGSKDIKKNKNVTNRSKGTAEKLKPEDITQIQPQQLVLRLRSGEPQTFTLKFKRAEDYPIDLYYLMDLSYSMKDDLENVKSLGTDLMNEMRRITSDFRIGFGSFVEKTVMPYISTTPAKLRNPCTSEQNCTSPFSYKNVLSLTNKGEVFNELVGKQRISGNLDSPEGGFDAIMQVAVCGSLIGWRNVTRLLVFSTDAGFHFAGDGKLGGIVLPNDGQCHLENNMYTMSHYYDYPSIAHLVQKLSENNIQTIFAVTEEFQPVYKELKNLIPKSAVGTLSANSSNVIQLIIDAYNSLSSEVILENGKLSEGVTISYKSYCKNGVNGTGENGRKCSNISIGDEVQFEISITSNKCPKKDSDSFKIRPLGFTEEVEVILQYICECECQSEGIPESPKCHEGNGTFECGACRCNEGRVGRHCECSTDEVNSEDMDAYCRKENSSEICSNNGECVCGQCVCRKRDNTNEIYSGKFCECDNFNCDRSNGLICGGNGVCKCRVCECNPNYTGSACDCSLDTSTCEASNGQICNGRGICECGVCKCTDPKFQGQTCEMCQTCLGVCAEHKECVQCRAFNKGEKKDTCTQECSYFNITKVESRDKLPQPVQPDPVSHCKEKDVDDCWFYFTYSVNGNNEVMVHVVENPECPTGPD
Lab note: jot the number down without any unit.

Some solved cases for reference:
compound	recordedMetric	numericResult
CC(C)C[C@@H]1NC(=O)c2ccc(-c3ccc(N4CCN(C(=O)c5cc(-c6ccccc6)c(C(=O)N6CCN(c7ccc(-c8ccc9cc8CNC(=O)[C@@H]8CCCN8[C@H](C(=O)NC(C)(C)C)[C@H](C)NC(=O)[C@H]([C@@H](C)O)NC(=O)[C@H](CC(=O)O)NC(=O)[C@H](CC(C)C)NC9=O)cc7)CC6)cc5-c5ccccc5)CC4)cc3)c(c2)CNC(=O)[C@@H]2CCCN2[C@H](C(=O)NC(C)(C)C)[C@H](C)NC(=O)[C@H]([C@@H](C)O)NC(=O)[C@H](CC(=O)O)NC1=O [Compound 469]	ELISA Assay Ratio β1/β7	0.3
CC(C)C[C@@H]1NC(=O)C[C@H](CCCCN)N(C)C(=O)[C@H](CCCCNC(=O)CCCCCCCC(=O)NCCCC[C@@H]2NC(=O)[C@@H]3CCCN3[C@H](C(=O)NC(C)(C)C)[C@H](C)NC(=O)[C@H]([C@@H](C)O)NC(=O)[C@H](CC(=O)O)NC(=O)[C@H](CC(C)C)NC(=O)C[C@H](CCCCN)N(C)C2=O)NC(=O)[C@@H]2CCCN2[C@H](C(=O)NC(C)(C)C)[C@H](C)NC(=O)[C@H]([C@@H](C)O)NC(=O)[C@H](CC(=O)O)NC1=O [Compound 533]	ELISA Assay Ratio β1/β7	1.2
CC(C)C[C@@H]1NC(=O)c2ccc(-c3ccc(N4CCN(C(=O)c5ccc(-c6ccc(C(=O)N7CCN(c8ccc(-c9ccc%10cc9CNC(=O)[C@@H]9CCCN9[C@H](C(=O)NC(C)(C)C)[C@H](C)NC(=O)[C@H]([C@@H](C)O)NC(=O)[C@H](CC(=O)O)NC(=O)[C@H](CC(C)C)NC%10=O)cc8)CC7)cc6)cc5)CC4)cc3)c(c2)CNC(=O)[C@@H]2CCCN2[C@H](C(=O)NC(C)(C)C)[C@H](C)NC(=O)[C@H]([C@@H](C)O)NC(=O)[C@H](CC(=O)O)NC1=O [Compound 474]	ELISA Assay Ratio β1/β7	0.4

**Query** Entry under review: CC(C)C[C@@H]1NC(=O)C[C@H](CCCCN)N(C)C(=O)[C@H](CCCCNC(=O)CCCCCCCCC(=O)NCCCC[C@@H]2NC(=O)[C@@H]3CCCN3[C@H](C(=O)NC(C)(C)C)[C@H](C)NC(=O)[C@H]([C@@H](C)O)NC(=O)[C@H](CC(=O)O)NC(=O)[C@H](CC(C)C)NC(=O)C[C@H](CCCCN)N(C)C2=O)NC(=O)[C@@H]2CCCN2[C@H](C(=O)NC(C)(C)C)[C@H](C)NC(=O)[C@H]([C@@H](C)O)NC(=O)[C@H](CC(=O)O)NC1=O [Compound 530] . Reported ELISA Assay Ratio β1/β7?
**Result** 1.0

**Query** Consider next the compound CC(C)C[C@@H]1NC(=O)c2ccc(-c3ccc(N4CCN(C(=O)c5nccnc5C(=O)N5CCN(c6ccc(-c7ccc8cc7CNC(=O)[C@@H]7CCCN7[C@H](C(=O)NC(C)(C)C)[C@H](C)NC(=O)[C@H]([C@@H](C)O)NC(=O)[C@H](CC(=O)O)NC(=O)[C@H](CC(C)C)NC8=O)cc6)CC5)CC4)cc3)c(c2)CNC(=O)[C@@H]2CCCN2[C@H](C(=O)NC(C)(C)C)[C@H](C)NC(=O)[C@H]([C@@H](C)O)NC(=O)[C@H](CC(=O)O)NC1=O [Compound 467] in the same way.
**Result** 0.1

**Query** Consider next the compound CC(C)C[C@@H]1NC(=O)C[C@H](CCCCN)N(C)C(=O)[C@H](CCCCNC(=O)c2cc(C(=O)O)cc(C(=O)NCCCC[C@@H]3NC(=O)[C@@H]4CCCN4[C@H](C(=O)NC(C)(C)C)[C@H](C)NC(=O)[C@H]([C@@H](C)O)NC(=O)[C@H](CC(=O)O)NC(=O)[C@H](CC(C)C)NC(=O)C[C@H](CCCCN)N(C)C3=O)c2)NC(=O)[C@@H]2CCCN2[C@H](C(=O)NC(C)(C)C)[C@H](C)NC(=O)[C@H]([C@@H](C)O)NC(=O)[C@H](CC(=O)O)NC1=O [Compound 537] in the same way.
**Result** 0.4

**Query** Consider next the compound CC(C)C[C@@H]1NC(=O)C[C@H](CCCCN)N(C)C(=O)[C@H](CCCCNC(=O)c2ccccc2-c2ccccc2C(=O)NCCCC[C@@H]2NC(=O)[C@@H]3CCCN3[C@H](C(=O)NC(C)(C)C)[C@H](C)NC(=O)[C@H]([C@@H](C)O)NC(=O)[C@H](CC(=O)O)NC(=O)[C@H](CC(C)C)NC(=O)C[C@H](CCCCN)N(C)C2=O)NC(=O)[C@@H]2CCCN2[C@H](C(=O)NC(C)(C)C)[C@H](C)NC(=O)[C@H]([C@@H](C)O)NC(=O)[C@H](CC(=O)O)NC1=O [Compound 535] in the same way.
**Result** 0.9
